Data origin: patent US20130029928A1

Experiment description: Phase I study CXR1002-001: plasma pharmacokinetics (LC-MS/MS)
Assay type: in vivo, human
Recorded conditions: human, plasma, oral, 300 mg, Patient 012 Dose 300 mg; 672 hr (Day 29); read-out: Concentration
Test readout: concentration at 672 h

Task: Consider the compound O=C(O)C(F)(F)C(F)(F)C(F)(F)C(F)(F)C(F)(F)C(F)(F)C(F)(F)F [CXR1002] and give its measured concentration at 672 h.
Output: 303 µM

====

Experiment description: Phase I study CXR1002-001: plasma pharmacokinetics (LC-MS/MS)
Format: in vivo, human
Recorded conditions: human, plasma, oral, 200 mg, Patient 008 Dose 200 mg; 696 hr (Day 30); read-out: Concentration
Text: PK samples, PD (fasting) samples, blood glucose, and blood triglyceride samples, were taken over a 6-week period. Dose limiting toxicity (DLT) will be based on the toxicity assessments over the first 3-week period of the repeat dosing schedule. […]
Test readout: concentration at 696 h (µM)
The answer is to be given in µM; state only the numeric part.

Task: Consider the compound O=C(O)C(F)(F)C(F)(F)C(F)(F)C(F)(F)C(F)(F)C(F)(F)C(F)(F)F and give its measured concentration at 696 h.
Output: 426

====

Experiment description: Phase I study CXR1002-001: plasma pharmacokinetics (LC-MS/MS)
Format: in vivo, human
Recorded conditions: human, plasma, oral, 600 mg, Patient 020, 600 mg, person, plasma, 171 hr; read-out: Concentration
From the text: PK samples, PD (fasting) samples, blood glucose, and blood triglyceride samples, were taken over a 6-week period. Dose limiting toxicity (DLT) will be based on the toxicity assessments over the first 3-week period of the repeat dosing schedule. […]
Test readout: concentration at 171 h
Answer format: value, then unit.

Task: Consider the compound O=C(O)C(F)(F)C(F)(F)C(F)(F)C(F)(F)C(F)(F)C(F)(F)C(F)(F)F and give its measured concentration at 171 h.
Output: 310 µM

====

Experiment description: Phase I study CXR1002-001: plasma pharmacokinetics (LC-MS/MS)
Format: in vivo, human
Recorded conditions: human, plasma, oral, 750 mg, Patient 028, 750 mg, person, plasma, 528 hr (Day 23); read-out: Concentration
Test readout: concentration at 528 h (µM)
The answer is to be given in µM; state only the numeric part.

Task: Consider the compound O=C(O)C(F)(F)C(F)(F)C(F)(F)C(F)(F)C(F)(F)C(F)(F)C(F)(F)F [CXR1002] and give its measured concentration at 528 h.
Output: 655

====

Experiment description: Phase I study CXR1002-001: plasma pharmacokinetics (LC-MS/MS)
Assay type: in vivo, human
Recorded conditions: human, plasma, oral, 600 mg, Patient 020, 600 mg, person, plasma, 170 hr; read-out: Concentration
Test readout: concentration at 170 h (µM)
The answer is to be given in µM; state only the numeric part.

Task: Consider the compound O=C(O)C(F)(F)C(F)(F)C(F)(F)C(F)(F)C(F)(F)C(F)(F)C(F)(F)F and give its measured concentration at 170 h.
Output: 327

====

Experiment description: Phase I study CXR1002-001: plasma pharmacokinetics (LC-MS/MS)
Format: in vivo, human
Recorded conditions: human, plasma, oral, 600 mg, Patient 024, 600 mg, person, plasma, 507 hr; read-out: Concentration
Test readout: concentration at 507 h (µM)
The answer is to be given in µM; state only the numeric part.

Task: Consider the molecule O=C(O)C(F)(F)C(F)(F)C(F)(F)C(F)(F)C(F)(F)C(F)(F)C(F)(F)F [CXR1002] and give its measured concentration at 507 h.
Output: 706

====

Experiment description: Phase I study CXR1002-001: plasma pharmacokinetics (LC-MS/MS)
Assay type: in vivo, human
Recorded conditions: human, plasma, oral, 50 mg, Patient 002 Dose 50 mg; 1.5 hr
Test readout: concentration at 1.5 h (µM)
The answer is to be given in µM; state only the numeric part.

Task: Consider the compound O=C(O)C(F)(F)C(F)(F)C(F)(F)C(F)(F)C(F)(F)C(F)(F)C(F)(F)F [CXR1002] and give its measured concentration at 1.5 h.
Output: 29.8
